# SYSTEM: T1, human mutCALR on BaF3 cells stably expressing human MPL and human mutCALR (MPL-mutCALR cells) (human)
# T1 construct: also called mutant calreticulin
# T1 chain: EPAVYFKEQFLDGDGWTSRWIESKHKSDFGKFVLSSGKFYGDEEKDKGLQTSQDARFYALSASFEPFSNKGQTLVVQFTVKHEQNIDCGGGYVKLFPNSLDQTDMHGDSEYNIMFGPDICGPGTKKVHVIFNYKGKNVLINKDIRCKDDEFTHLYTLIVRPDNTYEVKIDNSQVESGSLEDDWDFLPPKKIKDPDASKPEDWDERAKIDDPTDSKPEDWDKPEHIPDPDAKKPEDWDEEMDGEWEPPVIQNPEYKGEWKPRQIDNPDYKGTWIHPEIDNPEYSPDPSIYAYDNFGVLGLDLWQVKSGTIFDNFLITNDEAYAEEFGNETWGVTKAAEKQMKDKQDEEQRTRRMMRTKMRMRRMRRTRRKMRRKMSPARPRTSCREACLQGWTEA
# ASSAY: flow cytometry, BaF3 MPL-mutCALR cells
Listed next: entries and their corresponding MPL-mutCALR AUC.
Just the number, please.

// query For the binder shown here, anti-mutCALR antibody clone 66 (antibody, human IgG1, lambda, N297A, V domains shown) VH: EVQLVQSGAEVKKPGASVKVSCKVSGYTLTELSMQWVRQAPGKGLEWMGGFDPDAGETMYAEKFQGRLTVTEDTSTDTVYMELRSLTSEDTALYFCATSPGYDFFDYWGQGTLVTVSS VL: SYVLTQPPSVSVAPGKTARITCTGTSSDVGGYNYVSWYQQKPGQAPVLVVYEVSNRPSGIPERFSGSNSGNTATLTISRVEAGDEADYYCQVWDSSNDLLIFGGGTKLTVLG , give the reported MPL-mutCALR AUC.
// result 65000

// query GET /values?readout=MPL-mutCALR AUC&item= anti-mutCALR antibody clone 143 (antibody, human IgG1, lambda, N297A, V domains shown) VH: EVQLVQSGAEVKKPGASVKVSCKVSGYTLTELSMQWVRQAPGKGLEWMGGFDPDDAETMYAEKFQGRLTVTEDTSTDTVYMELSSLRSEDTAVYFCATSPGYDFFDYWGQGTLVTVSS VL: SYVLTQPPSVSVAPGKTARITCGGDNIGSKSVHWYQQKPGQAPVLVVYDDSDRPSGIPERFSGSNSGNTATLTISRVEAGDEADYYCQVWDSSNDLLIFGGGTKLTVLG
// result 69900

// query For the binder anti-mutCALR antibody clone 82 (antibody, human IgG1, lambda, N297A, V domains shown) VH: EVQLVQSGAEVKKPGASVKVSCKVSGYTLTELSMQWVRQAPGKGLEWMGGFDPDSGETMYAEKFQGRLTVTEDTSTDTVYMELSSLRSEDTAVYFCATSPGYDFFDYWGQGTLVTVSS VL: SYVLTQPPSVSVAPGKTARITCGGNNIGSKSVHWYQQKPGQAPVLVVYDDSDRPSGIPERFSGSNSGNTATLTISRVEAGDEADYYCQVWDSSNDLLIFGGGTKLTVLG , what MPL-mutCALR AUC is on record?
// result 50200
